# System under test: ATX enzyme (Homo sapiens (Human))
# Protocol text: ATX enzyme activity inhibition assay
# Format: biochemical
# Assay context: 16:0-LPC substrate, Amplex UltraRed fluorescence
pIC50: −log10 of the molar value.
Readout name: pIC50

// below: answered compounds
Sample smiles	pIC50
CCc1nc2ccc(-c3ccc(CC(=O)N4CC(O)C4)nn3)cn2c1N(C)c1nc(-c2ccc(F)cc2)c(C#N)s1	7.32
CCc1nc2ccc(-c3ccc(CC(=O)N4CC(O)C4)nc3C)cn2c1N(C)c1nc(-c2ccc(F)cc2)c(C#N)s1	7.54
CCN(c1nc(-c2ccc(F)cc2)c(C#N)s1)c1c2nc(-c3cnc(N4CCCCS4(=O)=O)nc3)ccc2nn1CC	7.96

I. CCN(c1nc(-c2ccc(F)cc2)c(C#N)s1)c1c2nc(-c3cnc(N4CCC(O)CC4)nc3)ccc2nn1CC
II. CCc1nc2ccc(-c3ccc(CC(=O)N4CC(O)C4)nc3)cn2c1N(C)c1nc(-c2ccc(F)cc2)c(C#N)s1
QUERY: Looking at I and II , which one comes out lower in pIC50 terms? Answer by stating the label of the chosen item.
RESULT: II
(II: 7.54, I: 8.26)

The reported numbers originate from patent US20230295159A1.
